Molecular target: T1, mouse IL-25 expressed with a C-terminal myc-myc-hexahistidine tag (mouse)
T1 chain: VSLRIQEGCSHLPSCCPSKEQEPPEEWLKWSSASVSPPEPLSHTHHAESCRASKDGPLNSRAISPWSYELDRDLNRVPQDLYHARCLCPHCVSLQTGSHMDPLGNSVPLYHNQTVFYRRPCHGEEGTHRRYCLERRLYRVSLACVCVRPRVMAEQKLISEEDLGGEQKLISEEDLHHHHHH
Assay: cell-based or functional assay
quantity.kind: IC50, luciferase reporter cells, 10 pM mIL-25-MMH (M)

binder	value.units	endpoint.result
H4H10863P (antibody, human IgG4, V domains shown, H4H prefix = human IgG4 Fc) VH: QVQLVQSGAEVKKPGASVKVSCKASGYTFSSYGISWVRQAPGQGLEWMGWISAYNDNTQYAQKFQGRVTMTTDTSTSTAYMELRSLRSDDTAVYYCARVPLQWFGESFDHWGQGTLVTVSS VL: DIQMTQSPSSLSASVGDRVTITCRASQDINNYLNWFQQKPGKAPKLLIFSTSSLQSGVPSRFSGSGSGTDFTLTISSLQSEDFATYYCQQTFITPLTFGGGTKVEIK	M	4.3e-09
H4H10905P (antibody, human IgG4, V domains shown, H4H prefix = human IgG4 Fc) VH: QVQLVQSGAEVKKPGTSVKVSCKASGYTFTNYGISWVRQAPGQGLEWLGWISAYNDNTDYAQKLQARVTMTTDTFTSTAYMDLRSLRSDDTAVYYCARVPITGTTSSFDFWGQGTLVTVSS VL: DIQMTQSPSSLSASVGDRVTISCRASQTIYSYLNWFQQKPGKAPKLLIYDASSLQSGVPSRFSGSGSGTHFTLTISSLQPEDFATYFCQQTYSTPLTFGGGTKVEIK	M	6.8e-10
H4H10897P (antibody, human IgG4, V domains shown, H4H prefix = human IgG4 Fc) VH: QVQLQESGPGLVKPSETLSLTCTVSGGSISDYYWSWIRQPPGKGLEWIGHIYYSGSTNHNPSLKSRVAISVDTSKNQFSLRLYSVTAADTAVYYCARDGYSSSSGFYYFGMDVWGQGTTVTVSS VL: DIQLTQSPSFLSASVGDRVTITCWASQDINSYLAWYQQKPGKAPKLLIFAASTLQGGVPSRFSGSGSGTEFTLTISSLQPEDFATYYCQHLSSFPPTFGQGTRLEIK	M	1.5e-08
